Task for the reader: assign each of the following compounds its reported CTG-3D luminescence at 96 h.
# Test system: HCI-008 (organoid from a HER2-enriched breast cancer xenograft)
# Method: CTG-3D luminescence at 96 h relative to day-0 seeding control (ratio to day 0); higher = more growth / less cytotoxicity; PDxO 3D drug screen (set 2), 96 h, CTG-3D normalised to day-0 seeding control.
# Experimental Setup: 0.1 µM; days in culture: 382
I'd appreciate a reply containing only the number, no unit.

(Q) Report CTG-3D luminescence at 96 h for COc1cccc2c1C(=O)c1c(O)c3c(c(O)c1C2=O)C[C@@](O)(C(=O)CO)C[C@@H]3O[C@H]1C[C@H](N)[C@@H](O)[C@H](C)O1 [epirubicin] tested on HCI-008.
(A) 1.6

(Q) Report CTG-3D luminescence at 96 h for "CS(=O)(=O)CCNCc1ccc(-c2ccc3ncnc(Nc4ccc(OCc5cccc(F)c5)c(Cl)c4)c3c2)o1" tested on HCI-008.
(A) 1.52

(Q) Report CTG-3D luminescence at 96 h for "CC(C)n1nc(-c2ccc3oc(N)nc3c2)c2c(N)ncnc21" tested on HCI-008.
(A) 0.751

(Q) Report CTG-3D luminescence at 96 h for "O=C(c1cc(Cc2n[nH]c(=O)c3ccccc23)ccc1F)N1CCN(C(=O)C2CC2)CC1" tested on HCI-008.
(A) 2

(Q) Report CTG-3D luminescence at 96 h for "CC(=O)c1c(C)c2cnc(Nc3ccc(N4CCNCC4)cn3)nc2n(C2CCCC2)c1=O" tested on HCI-008.
(A) 1.83

###

# Test system: HCI-019 (organoid from a triple-negative breast cancer xenograft)
# Method: CTG-3D luminescence at 96 h relative to day-0 seeding control (ratio to day 0); higher = more growth / less cytotoxicity; PDxO 3D drug screen, 96 h, CTG-3D normalised to day-0 seeding control.
# Experimental Setup: 1 µM; days in culture: 110
Task for the reader: assign each of the following compounds its reported CTG-3D luminescence at 96 h.
I'd appreciate a reply containing only the number, no unit.

(Q) Recorded CTG-3D luminescence at 96 h for "CC(C)n1nc(-c2ccc3oc(N)nc3c2)c2c(N)ncnc21" , please?
(A) 0.409

(Q) Recorded CTG-3D luminescence at 96 h for "NC(=O)Nc1cc(-c2cccc(F)c2)sc1C(=O)N[C@H]1CCCNC1" , please?
(A) 0.333

(Q) Recorded CTG-3D luminescence at 96 h for "CCN(c1cc(C#CCN2CCOCC2)cc(C(=O)NCc2c(C)cc(C)[nH]c2=O)c1C)[C@H]1CC[C@H](N(C)CCOC)CC1" , please?
(A) 1.81

(Q) Recorded CTG-3D luminescence at 96 h for CN(Cc1cnc2nc(N)nc(N)c2n1)c1ccc(C(=O)N[C@@H](CCC(=O)O)C(=O)O)cc1 [methotrexate] , please?
(A) 1.17

###

Task for the reader: assign each of the following compounds its reported CTG-3D luminescence at 96 h.
# Tested on: HCI-002 (organoid from a triple-negative breast cancer xenograft)
# Method: CTG-3D luminescence at 96 h relative to day-0 seeding control (ratio to day 0); higher = more growth / less cytotoxicity; PDxO 3D drug screen, 96 h, CTG-3D normalised to day-0 seeding control.
# Experimental Setup: 0.00025 µM; days in culture: 82
I'd appreciate a reply containing only the number, no unit.

(Q) Recorded CTG-3D luminescence at 96 h for "CC(=O)O[C@H]1C(=O)[C@@]2(C)[C@H]([C@H](OC(=O)c3ccccc3)[C@]3(O)C[C@H](OC(=O)[C@H](O)[C@@H](NC(=O)c4ccccc4)c4ccccc4)C(C)=C1C3(C)C)[C@]1(OC(C)=O)CO[C@@H]1C[C@@H]2O" , please?
(A) 3.2

(Q) Recorded CTG-3D luminescence at 96 h for "C/C=C1\NC(=O)[C@H]2CSSCC/C=C/[C@H](CC(=O)N[C@H](C(C)C)C(=O)N2)OC(=O)[C@H](C(C)C)NC1=O" , please?
(A) 3.38

(Q) Recorded CTG-3D luminescence at 96 h for "Cc1nc(-c2cn3c(n2)-c2ccc(-c4cnn(C(C)(C)C(N)=O)c4)cc2OCC3)n(C(C)C)n1" , please?
(A) 2.9
